This collection of values is drawn from patent US20230233569A1.

Measured pIC50, listed per entry.
- Target Under Test: KRAS G12S (Homo sapiens, UniProt P01116+P62937, G12S)
- Sequence (P01116 1-169 isoform P01116-2 G12S limits assumed): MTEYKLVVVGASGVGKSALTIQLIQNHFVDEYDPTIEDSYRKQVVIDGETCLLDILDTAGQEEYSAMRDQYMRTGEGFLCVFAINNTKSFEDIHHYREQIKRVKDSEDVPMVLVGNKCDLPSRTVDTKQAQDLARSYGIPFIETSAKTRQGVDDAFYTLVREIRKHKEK
- Sequence (P62937 whole entry): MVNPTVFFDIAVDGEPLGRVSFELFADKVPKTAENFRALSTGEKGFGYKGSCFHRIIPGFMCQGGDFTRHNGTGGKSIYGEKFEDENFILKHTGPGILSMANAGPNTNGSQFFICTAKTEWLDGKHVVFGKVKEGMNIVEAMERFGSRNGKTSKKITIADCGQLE
- Experiment Notes: Disruption of BRAF RBD interaction with Ras (FRET / MOA assay, with Cyclophilin A)
- Format: biochemical
- Setup Conditions: read-out: KRAS G12S FRET data, IC50
pIC50: −log10 of the molar value.
Measurement Label: pIC50

[[record]]
compound = "CCn1c(-c2cccnc2[C@H](C)OC)c2c3cc(ccc31)-c1cc(O)cc(c1)C[C@H](NC(=O)[C@H](C(C)C)N(C)C(=O)C1CC13CCNCC3)C(=O)N1CCC[C@H](N1)C(=O)OCC(C)(C)C2 (stereo partly drawn) [Example A151]"
result = "6.00 to 7.00"

[[record]]
compound = "CCn1c(-c2cccnc2[C@H](C)OC)c2c3cc(ccc31)-c1cccc(c1)C[C@H](NC(=O)[C@H](C(C)C)N(C)C(=O)[C@H]1CCN(C(=O)C#CC3CC(F)(F)CN3C)C1)C(=O)N1CCC[C@H](N1)C(=O)OCC(C)(C)C2 (stereo partly drawn) [Example A526]"
result = "5.00 to 6.00"

[[record]]
compound = "CCN(C(=O)N(C)[C@H](C(=O)N[C@H]1Cc2nc(cs2)-c2ccc3c(c2)c(c(-c2cccnc2[C@H](C)OC)n3CC)CC(C)(C)COC(=O)[C@@H]2CCCN(N2)C1=O)C(C)C)C(C)C [Example A333]"
result = "6.00 to 7.00"

[[record]]
compound = "CCn1c(-c2cccnc2[C@H](C)OC)c2c3cc(ccc31)-c1cc(O)cc(c1)C[C@H](NC(=O)[C@H](C(C)C)N(C)C(=O)C1CN(C)C1)C(=O)N1CCC[C@H](N1)C(=O)OCC(C)(C)C2 (atropisomer, axis not shown) [Example A124]"
result = "7.00 to 8.00"

[[record]]
compound = "CCn1c(-c2cccnc2[C@H](C)OC)c2c3cc(ccc31)-c1csc(n1)C[C@H](NC(=O)[C@H](C(C)C)N(C)C(=O)N1C[C@H](OC)[C@@H](N)C1)C(=O)N1CCC[C@H](N1)C(=O)OCC(C)(C)C2 (atropisomer, axis not shown) [Example A580]"
result = "6.00 to 7.00"

[[record]]
compound = "CCn1c(-c2cccnc2[C@H](C)OC)c2c3cc(ccc31)-c1csc(n1)C[C@H](NC(=O)[C@H](C(C)C)N(C)C(=O)N1CC3(C1)CS(=O)(=O)CCN3C)C(=O)N1CCC[C@H](N1)C(=O)OCC(C)(C)C2 [Example A482]"
result = "5.00 to 6.00"

[[record]]
compound = "CCn1c(-c2cnccc2COC)c2c3cc(ccc31)-c1cc(O)cc(c1)C[C@H](NC(=O)[C@H](C(C)C)N(C)C(=O)N1CC(OC)C1)C(=O)N1CCC[C@H](N1)C(=O)OCC(C)(C)C2 [Example A30]"
result = "6.00 to 7.00"

[[record]]
compound = "CCn1c(-c2cccnc2[C@H](C)OC)c2c3cc(ccc31)-c1csc(n1)C[C@H](NC(=O)[C@H](C(C)C)N(C)C(=O)N1CCN(C)CC1)C(=O)N1CCC[C@H](N1)C(=O)OCC(C)(C)C2 [Example A570]"
result = "6.00 to 7.00"

[[record]]
compound = "CCn1c(-c2cccnc2[C@H](C)OC)c2c3cc(ccc31)-c1cc(C#N)cc(c1)C[C@H](NC(=O)[C@H](C(C)C)N(C)C(C)=O)C(=O)N1CCC[C@H](N1)C(=O)OCC(C)(C)C2 (atropisomer, axis not shown) [Example A430]"
result = "< 5.00"

